assay: Bi-directional permeability, CACO-2; type: in vitro ADME; settings: Caco-2, pH 7, Percent Recovery Blank
Label T when recovery at 2 h, 10 μM is strictly below 70%; at or above that, label F.

{"molecule": "COc1ccc(C(=O)N(NC(=O)c2ccc3c(c2C)OCCO3)C(C)(C)C)c(OC)n1 [RG-115517]", "assigned_category": "F"}
{"molecule": "CCc1ccc(C(=O)NN(C(=O)c2cc(C)cc(C)c2)C(C)(C)C)cc1 [RG-102125]", "assigned_category": "T"}
{"molecule": "COc1cccc(C(=O)NN(C(=O)c2cc(C)cc(C)c2)C(C)(C)C)c1C [RG-102398]", "assigned_category": "F"}

**Query** I'd appreciate it if you could check whether CCc1ccc(C(=O)NN(C(=O)c2cc(C)cc(C)c2)C(C)(C)C)c(F)c1 [RG-101523] has recovery at 2 h, 10 μM smaller than 70%.
**Result** F

----------
target: GAL4 DBD-CfEcR(DEF)/VP16AD-MmRXRE (Choristoneura fumiferana, UniProt O77240); assay: 13B3 Assay (CHO stable cell line, luciferase reporter); settings: read-out: 13B3 EC50; CHO 13B3 stable cell line, luciferase reporter, 48 h; average of two wells
Consider the following molecules; for each one, report its EC50.

These recorded examples may help you get a feel for the data.
{"molecule": "COc1cccc(C(=O)NN(C(=O)c2cc(C)cc(Br)c2)C(C)(C)C)c1C", "measured_result": "675 nM"}
{"molecule": "CCc1ccc(C(=O)NN(C(=O)c2cc(C)cc(C)c2)C(C)C(C)(C)C)cc1 (stereo not drawn)", "measured_result": "208 nM"}
{"molecule": "COc1ccc(C(=O)NN(C(=O)c2cc(Cl)cc(Cl)c2)C(C)(C)C)cc1", "measured_result": "1360 nM"}
{"molecule": "Cc1cc(C)cc(C(=O)N(NC(=O)c2ccc3c(c2Cl)COCO3)C(C)(C)C)c1", "measured_result": "518 nM"}
{"molecule": "CCc1c(OC)cccc1C(=O)NN(C(=O)c1cc(C)cc(C)c1)C(C)(C)C=NCCO", "measured_result": "> 50000 nM"}
{"molecule": "CCc1ccc(C(=O)NN(C(=O)c2ccccc2CC)C(C)(C)C)cc1", "measured_result": "4920 nM"}
{"molecule": "COc1cccc(C(=O)NN(C(=O)c2cc(C)cc(C)c2)C(C)(C)C)c1CF", "measured_result": "> 50000 nM"}
{"molecule": "Cc1c(C(=O)NN(C(=O)c2cccc(F)c2)C(C)(C)C)ccc2c1CCCO2", "measured_result": "630 nM"}

Continue with the next molecule.
Record CCC(N(NC(=O)c1cccc(C)c1C)C(=O)c1cccc(C)c1)C(C)(C)C (stereo not drawn) ; system GAL4 DBD-CfEcR(DEF)/VP16AD-MmRXRE (Choristoneura fumiferana, UniProt O77240); EC50 = 865 nM

----------
assay: Bi-directional permeability, CACO-2; type: in vitro ADME; conditions: human, Caco-2, pH 7, Caco-2, 10 μM, average of 2 replicates; read-out: Papp, B-to-A Avg
reported_endpoint: Papp B→A at 2 h, 10 µM (nm/s)
One number for each entry, in nm/s.

{"compound_structure": "CCc1c(OC)cccc1C(=O)NN(C(=O)c1cc(C)cc(C)c1)C(C)(C)C", "output_unit": "nm/s", "Papp B→A at 2 h, 10 µM": 235}

Continue with the next compound.
Per the record, CCc1ccc(C(=O)NN(C(=O)c2cc(C)cc(C)c2)C(C)(C)C)cc1 has Papp B→A at 2 h, 10 µM of 202

----------
target: GAL4 DBD (1-147)-CfEcR(DEF)/VP16AD-βRXREF-LmUSPEF (Choristoneura fumiferana, UniProt O77240); assay: cell-based; conditions: 33 uM ligand; RLU ligand treated / RLU DMSO treated cells; average of two wells
Label Yes when Fold Induction, 27-63 Assay, 33 uM is strictly below 1000; at or above that, label No.

Some solved cases for reference:
{"molecule": "CCc1c(C(=O)NN(C(=O)c2ccc(Cl)cc2F)C(C)(C)C)ccc2c1OCCO2", "assigned_category": "No"}
{"molecule": "Cc1c(C(=O)NN(C(=O)c2ccc(F)cc2)C(C)(C)C)ccc2c1OCO2", "assigned_category": "Yes"}
{"molecule": "COc1cc(Cl)ccc1C(=O)N(NC(=O)c1cccc(OC)c1C)C(C)(C)C", "assigned_category": "No"}
{"molecule": "CCc1c(C(=O)NN(C(=O)c2ccccc2OC)C(C)(C)C)ccc2c1OCOC2", "assigned_category": "No"}

**Query** I'd appreciate it if you could check whether COc1ccccc1C(=O)N(NC(=O)c1ccc2c(c1C)OCOC2)C(C)(C)C has Fold Induction, 27-63 Assay, 33 uM smaller than 1000.
**Result** No

**Query** I'd appreciate it if you could check whether Cc1cc(C)cc(C(=O)N(NC(=O)c2ccc3c(c2)OC(C)O3)C(C)(C)C)c1 (centres unmarked) has Fold Induction, 27-63 Assay, 33 uM smaller than 1000.
**Result** No

**Query** I'd appreciate it if you could check whether CCc1c(OC)cccc1C(=O)NN(C(=O)c1cc(OC)c(C)c(OC)c1)C(CC)C(C)(C)C (centres unmarked) has Fold Induction, 27-63 Assay, 33 uM smaller than 1000.
**Result** No

**Query** I'd appreciate it if you could check whether COc1cc(C(=O)N(NC(=O)c2cccc(OC)c2C)C(C)(C)C)c(=O)[nH]n1 has Fold Induction, 27-63 Assay, 33 uM smaller than 1000.
**Result** Yes

----------
molecular target: GAL4 DBD (1-147)-CfEcR(DEF)/VP16AD-βRXREF-LmUSPEF (Choristoneura fumiferana); assay: cell-based; conditions: read-out: 27-63 assay EC50; CHO 27-63 stable cell line, luciferase reporter; average of two wells
reported_endpoint: pEC50
Numbers only, as −log10 of the molar value.

{"molecule": "COc1cccc(C(=O)NN(C(=O)c2ccc(Cl)cc2F)C(C)(C)C)c1C", "measured_result": 5.98}
{"molecule": "COc1cc(Cl)ccc1C(=O)N(NC(=O)c1cccc(OC)c1C)C(C)(C)C", "measured_result": 6.49}
{"molecule": "Cc1cc(C)cc(C(=O)N(NC(=O)c2cc3c(cc2C)OCO3)C(C)(C)C)c1", "measured_result": 5.00}

Quick batch: pEC50 for everything below.
1. CCc1c(OC)cccc1C(=O)NN(C(=O)c1cc(C)cc(C)c1)C(C)(C)C=NCCO
2. COc1cccc(C(=O)N(NC(=O)c2ccc3c(c2C)OCCO3)C(C)(C)C)c1
3. CCc1c(C(=O)NN(C(=O)c2cc(OC)c(C)c(OC)c2)C(C)(C)C)ccc2c1OCCO2
4. Cc1cc(C)cc(C(=O)N(NC(=O)c2cccc(OC(F)(F)F)c2C)C(C)(C)C)c1

**Result**
[4.92, 6.21, 7.03, 6.10]

Quick batch: pEC50 for everything below.
1. COc1cccc(C(=O)NN(C(=O)c2cc(Cl)nnc2Cl)C(C)(C)C)c1C
2. CCc1c(OC)cccc1C(=O)NN(C(=O)c1ccc(Cl)cc1[N+](=O)[O-])C(C)(C)C
3. Cc1c(C(=O)NN(C(=O)c2cc(F)cc(F)c2)C(C)(C)C)ccc2c1CCCO2
4. COc1cccc(C(=O)NN(C(=O)c2ccc(C(F)(F)F)nc2OC)C(C)(C)C)c1C
5. CCCCC(N(NC(=O)c1ccc(CC)cc1)C(=O)c1cccnc1OC)C(C)(C)C (centres unmarked)

**Result**
[5.37, 6.43, 6.23, 5.93, 5.92]

Quick batch: pEC50 for everything below.
1. COc1cccc(C(=O)NN(C(=O)c2cc(Cl)cc(Br)c2)C(C)(C)C)c1C
2. Cc1c(C(=O)NN(C(=O)c2cc(F)c(F)c(F)c2F)C(C)(C)C)ccc2c1CCCO2
3. CCc1c(C(=O)NN(C(=O)c2ccccc2OC)C(C)(C)C)ccc2c1OCOC2

**Result**
6.47
5.98
5.52

----------
Assay: Bi-directional permeability, CACO-2
Assay type: in vitro ADME
Conditions: Caco-2, pH 7, Papp Blank
Description: Caco-2 monolayers were grown to confluence on collagen-coated, microporous, polycarbonate membranes in 12-well Costar Transwell plates. Details of the plates and their certification are shown below. […] Lucifer yellow flux was also measured for each monolayer after being subjected to the test compounds to ensure no damage was inflicted to the cell monolayers during the flux period. […]
reported_endpoint: Papp at 2 h, 10 µM (×10⁻⁶ cm/s)
Give bare numbers, in ×10⁻⁶ cm/s.

Quick batch: Papp at 2 h, 10 µM for everything below.
1. Cc1cc(C)cc(C(=O)N(NC(=O)c2ccc3c(c2C)OCCO3)C(C)(C)C)c1
2. CCC(N(NC(=O)c1cccc(C)c1C)C(=O)c1cc(C)cc(C)c1)C(C)(C)C (stereo not shown)
3. COc1ccc(C(=O)N(NC(=O)c2ccc3c(c2C)OCCO3)C(C)(C)C)c(OC)n1
4. CCc1ccc(C(=O)NN(C(=O)c2cc(C)cc(C)c2)C(C)(C)C)c(F)c1

**Result**
[27.9, 23.6, 31.6, 29.4]
